System: Mus musculus
Assay: Biodistribution in thyroid gland of C57BL/6J mouse bearing mouse B16F0 cells at 0.37 to 1.85 MBq, iv after 24 hrs by gamma counting method
Assay type: ADME, organism-based
Details: in vivo
readout.name: Drug uptake (% ID/g)
Please reply with the bare figure in % ID/g and do not write the unit itself.

| mol.smiles | assayed.target | measured.number |
| --- | --- | --- |
| O=C(CN1Cc2ccccc2C1=O)NC1CCN(Cc2ccc([123I])cc2)CC1 | Mus musculus | 2.6 |
| O=C(c1ccc2c(n1)NCCC2)N1CCN(Cc2ccc([123I])cc2)CC1 | Mus musculus | 2 |
| O=C(c1ccc2cccnc2n1)N1CCN(Cc2ccc([123I])cc2)CC1 | Mus musculus | 2.9 |

Query compound follows.
Lookup: # assay system Mus musculus: give Drug uptake of `O=C(CN1Cc2ccccc2C1=O)N1C[C@H]2CN(Cc3ccc([123I])cc3)C[C@H]2C1`
Found: 1
